# Tested on: HeLa-p4 cells
# assay text: Cell viability assay (MTS) on HeLa-p4 cells
# Type: cell-based
# condition: 100 μM; cell viability
Recorded measurements of Hela-p4 MTS 100 μM, one per entry
Please state the value as a number alone, without comment.

Which Hela-p4 MTS 100 μM value belongs to COc1cccc(CCN2C[C@H](NC(=O)OC(C)(C)C)C[C@H](NC(=O)OC(C)(C)C)C2)c1 ?
104

Further, for CC(C)(C)OC(=O)N[C@@H]1C[C@H](NC(=O)OC(C)(C)C)CN(S(=O)(=O)c2ccccc2)C1 ?
69

Proceed to CC(C)N1C[C@H](N)C[C@H](N)C1
99

Proceed to CC(C)(C)OC(=O)N[C@@H]1CNC[C@H](NC(=O)OC(C)(C)C)C1
96

Can you handle COc1cc(N2C[C@H](N)C[C@H](N)C2)cc(OC)c1OC next?
97

Follow-up item: COc1ccc(CCN2C[C@H](N)C[C@H](N)C2)cc1
82

Check COc1ccc2c(CN3C[C@H](NC(=O)OC(C)(C)C)C[C@H](NC(=O)OC(C)(C)C)C3)cn(C)c2c1 too.
54

Note, next up: CC(C)(C)OC(=O)N[C@@H]1C[C@H](NC(=O)OC(C)(C)C)CN(Cc2ccc(N3CCCC3)cc2)C1
67

Moving on to the next compound: COc1cccc(CCN2C[C@@H](N)C[C@@H](NS(C)(=O)=O)C2)c1 (racemic)
99

Same question, COc1cccc(CCN2C[C@H](NC(C)=O)C[C@H](NC(C)=O)C2)c1 this time
98

Now this one: COc1cccc(N2C[C@H](N)C[C@H](N)C2)c1
94

Same question for N[C@@H]1C[C@H](N)CN(c2ccc(NC(=O)c3ccccc3)c(O)c2)C1 please.
90

Queued: CCOc1ccc(CCN2C[C@H](N)C[C@H](N)C2)cc1
97

Param item: COc1ccc(-c2ccc(N3C[C@H](N)C[C@H](N)C3)cc2)cc1
25

The measurements presented in this section are drawn from patent US20170183306A1.
